Biological target: T1, Human VE-PTP (HPTP-β) containing first eight FN3 repeats with C-terminal His6 tag (Human ½ VE-PTP ECD) (human, UniProt P23467 23-820)
T1 construct: Produced in HEK293 cells and purified by the His tag; it was not cut off; also called Human Beta ½ ECD
T1 sequence: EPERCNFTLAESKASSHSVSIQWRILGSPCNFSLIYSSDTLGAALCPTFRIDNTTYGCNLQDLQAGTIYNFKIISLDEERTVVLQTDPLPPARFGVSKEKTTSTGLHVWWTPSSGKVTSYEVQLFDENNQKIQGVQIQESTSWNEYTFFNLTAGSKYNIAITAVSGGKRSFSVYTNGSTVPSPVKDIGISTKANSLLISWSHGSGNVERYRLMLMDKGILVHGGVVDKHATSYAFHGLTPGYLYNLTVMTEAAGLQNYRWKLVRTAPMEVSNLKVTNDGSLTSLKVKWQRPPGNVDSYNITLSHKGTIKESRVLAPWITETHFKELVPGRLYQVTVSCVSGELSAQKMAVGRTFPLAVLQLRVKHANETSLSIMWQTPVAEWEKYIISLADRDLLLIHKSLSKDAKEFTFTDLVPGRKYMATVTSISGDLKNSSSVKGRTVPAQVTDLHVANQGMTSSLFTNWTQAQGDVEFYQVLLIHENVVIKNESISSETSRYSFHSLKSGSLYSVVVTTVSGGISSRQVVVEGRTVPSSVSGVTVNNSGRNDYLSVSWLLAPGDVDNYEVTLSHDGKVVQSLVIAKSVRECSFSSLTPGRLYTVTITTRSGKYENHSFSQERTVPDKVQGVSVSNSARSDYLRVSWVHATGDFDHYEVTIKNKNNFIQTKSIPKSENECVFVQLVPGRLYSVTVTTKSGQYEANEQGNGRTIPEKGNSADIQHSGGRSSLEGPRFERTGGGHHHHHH
Experiment: SPR (Biacore 3000), antibody captured on anti-human IgG, antigen as analyte 50-0 nM
readout: koff (s⁻¹)

[[record]]
binder = "humanized R15E6 variant HC2LC1 (antibody, human IgG4 S228P, kappa, V domains shown, Human IgG4 (S228P) / kappa, expressed in CHO cells; Signal peptides left out by range; also called VH2-VL1) VH: EVQLVESGGGLVQPGGSLRLSCAASGFTFNANAMNWVRQAPGKGLEWVGRIRTKSNNYATYYAGSVKDRFTISRDDSKNSLYLQMNSLKTEDTAVYYCVRDYYGSSAWITYWGQGTLVTVSS VL: DVVMTQSPSFLSASVGDRVTITCKASQHVGTAVAWYQQRPGKAPKLLIYWASTRHTGVPSRFSGSGSGTEFTLTISSLQPEDFATYFCQQYSSYPFTFGGGTKLEIKR"
reported_measurement = "7.23e-05"

